- Test system: Human papillomavirus type 1a protein E7 (residues 44-93)
- Run Description: HPV1a E7 fragment binders on microarrays, primary screen, biochemical, small-molecule microarray, residues 44-93, 635 nm fluorescence (AID 1108);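 note: E7 fragment applied at 1 µg/mL in TBST for 1 h at 4 C; score combines spot fluorescence with its signal to noise ratio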
- Experimental Conditions: small-molecule microarray binding, fluorescence 635 nm; higher = more signal
Assay Endpoint: composite z-score
Give your answer as a number; write no unit.

Reported composite z-score, molecule C=CCC(OC(C)=O)[C@@H]1[C@@H](N(Cc2ccc(-c3cccc(C(F)(F)F)c3)o2)C(=O)Cc2ccc(F)cc2)c2cc(OCCCO)ccc2N1C(=O)c1ccc2ccccc2c1 (some centres not stated) : ____ -1.18

Same question, `CCOC(=O)C[C@H]1[C@H](OC(=O)c2ccc(C(=O)c3ccccc3)cc2)[C@@H](NC(=O)c2ccc3ccccc3c2)c2cc(OCCCO)ccc2N1C(=O)c1ccc2ccccc2n1` this time 1.05

Proceed to `CCCC=C(CCC)[C@@H](NS(=O)(=O)c1ccc(Cl)cc1)c1ccccc1` -0.201

What do you get for `COCCOC(=O)N1C(=O)[C@@]2(c3cc(C#CC4(O)CCCCCC4)ccc31)[C@H](c1ccc(OCCO)cc1)N1[C@H](c3ccccc3)[C@H](c3ccccc3)OC(=O)[C@H]1[C@@H]2C(N)=O` ? 0.448

How about this molecule: `COC(=O)c1c(CC[C@@H](CO)NC(=O)N[C@@H](Cc2ccccc2)Cn2cc(-c3cncn3C)nn2)oc(C(C)=O)c1C(=O)OC` 1.47

Another molecule to look at: CCCCC(O)C1C=CC2C(=O)NC(=O)C2N1Nc1ccc(Cl)cc1Cl (configuration not stated) 0.694

Another: `CN(C)CCCCNC(=O)[C@H]1C[C@H]2C(=O)N[C@@H](Cc3ccccc3)C(=O)N2[C@H]1c1cccc(OCCO)c1` -1.49

Source listed as PubChem BioAssay.
